- system-tested: Torsin-1A-interacting protein 1 (Homo sapiens) (UniProt Q5JTV8)
- Sequence (Q5JTV8 whole entry, looked up): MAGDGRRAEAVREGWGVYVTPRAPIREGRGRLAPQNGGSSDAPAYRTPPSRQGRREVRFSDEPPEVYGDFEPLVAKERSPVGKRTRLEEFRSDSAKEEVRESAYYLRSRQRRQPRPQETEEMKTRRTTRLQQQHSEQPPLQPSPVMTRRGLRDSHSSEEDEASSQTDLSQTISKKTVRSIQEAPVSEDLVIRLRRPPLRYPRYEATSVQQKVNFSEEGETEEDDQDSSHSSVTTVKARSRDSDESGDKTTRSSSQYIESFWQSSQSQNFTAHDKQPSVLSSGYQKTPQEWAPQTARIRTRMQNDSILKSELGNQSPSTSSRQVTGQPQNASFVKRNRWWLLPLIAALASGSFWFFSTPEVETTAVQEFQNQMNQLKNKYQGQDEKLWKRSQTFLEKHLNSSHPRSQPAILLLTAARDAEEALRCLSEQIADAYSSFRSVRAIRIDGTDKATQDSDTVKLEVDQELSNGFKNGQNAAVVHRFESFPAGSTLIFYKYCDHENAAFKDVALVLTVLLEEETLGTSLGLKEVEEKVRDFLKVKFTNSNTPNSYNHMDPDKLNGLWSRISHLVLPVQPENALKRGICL
- experiment-notes: LAP1 binders from COS7 cell lysate, primary screen, small-molecule microarray, 635/667 nm fluorescence (AID 1116)
- run-parameters: COS7-hLAP1 lysate binding, 635 nm fluorescence, higher = more signal
Listed here: items and their measured composite z-score.
Would you mind answering with just the numeric figure?

Example entries and their recorded answers appear below.
> print(dat)
                                   molecule                             system.tested  recorded.number
1  CO[C@H]1O[C@H](CO)[C@@H](OC(=O)Nc2ccc(Oc3ccccc3)cc2)[C@H](OC(=O)Nc2ccccc2-c2ccccc2)[C@@H]1OC(=O)Nc1ccccc1-c1ccccc1  Torsin-1A-interacting protein 1 (Homo sapiens) (UniProt Q5JTV8)             1.27
2  C=C1C2CC3C(=C4C(CO[C@@H]4[C@H]4CCCN4S(=O)(=O)c4ccccc4[N+](=O)[O-])C4C(=O)N(C)C(=O)C34)CC2C(=O)N1C (stereo partly drawn)  Torsin-1A-interacting protein 1 (Homo sapiens) (UniProt Q5JTV8)            0.231

Give composite z-score for CC1CC/C=C\[C@H]2OC34C=CCN(C(C)C)C(=O)[C@H]3N(CCCCCO)C(=O)[C@@H]4C2C(=O)O1 (stereo partly drawn)
-0.753

Where do these numbers come from? They come from PubChem BioAssay.
